Reported pIC50 on MAPK1(ERK2) enzyme (Homo sapiens) for assorted compounds, compiled from publications.
Bear in mind: pIC50 is minus log10 of a mol/L concentration; give just that figure.

pIC50 of `COCc1cccc(-c2cnc3ccc(NC(=O)N[C@H](C)CCCc4ccccc4)nc3n2)c1` on MAPK1(ERK2) enzyme (Homo sapiens)? 7.62

pIC50 of `O=C(N[C@H](CNC1CC1)c1ccccc1)c1nc2cc3c(-c4ccncc4)n[nH]c3cc2[nH]1` on MAPK1(ERK2) enzyme (Homo sapiens)? 9.49

pIC50 of `CC1(C)c2sc(-c3ccnc(NC4CCOCC4)n3)nc2C(=O)N1Cc1cccc(Cl)c1` on MAPK1(ERK2) enzyme (Homo sapiens)? 9.41

pIC50 of `Cc1cnc(Nc2ccnn2C)nc1-c1cn2c(n1)C(=O)N(Cc1cccc(C(F)(F)F)n1)[C@H](C)C2` on MAPK1(ERK2) enzyme (Homo sapiens)? 8.85

pIC50 of `Cn1nccc1Nc1nccc(-c2nc3c(s2)C(C)(C)N(Cc2cccc(F)c2)C3=O)n1` on MAPK1(ERK2) enzyme (Homo sapiens)? 9.46

pIC50 of `Cc1cccc(CN2C(=O)c3nc(-c4nc(Nc5ccnn5C)ncc4Cl)cn3C[C@@H]2C)n1` on MAPK1(ERK2) enzyme (Homo sapiens)? 9.10

pIC50 of `CCNC(=O)Nc1ccc2ncc(Nc3ccc(OC)c(OC)c3)nc2n1` on MAPK1(ERK2) enzyme (Homo sapiens)? 4.78

pIC50 of `Cc1cnc(Nc2ccnn2C2CC2)nc1-c1nc2c(s1)C(C)(C)N(Cc1cccc(F)c1)C2=O` on MAPK1(ERK2) enzyme (Homo sapiens)? 9.32

pIC50 of `Cc1ccc([C@@H](C)NC(=O)c2nc3cc4c(-c5ccncc5)n[nH]c4cc3[nH]2)cc1` on MAPK1(ERK2) enzyme (Homo sapiens)? 9.08

pIC50 of `Cc1cnc(Nc2ccnn2C)nc1-c1cc2n(c1)C(=O)N(Cc1ccc(F)c(F)c1)C2` on MAPK1(ERK2) enzyme (Homo sapiens)? 7.80

pIC50 of `Cc1cc(-c2n[nH]c3cc4[nH]c(C(=O)N[C@H](C)c5ccccc5)nc4cc23)ccn1` on MAPK1(ERK2) enzyme (Homo sapiens)? 8.91

pIC50 of `CCNC(=O)Nc1ccc2ncc(Nc3ccccc3C)nc2n1` on MAPK1(ERK2) enzyme (Homo sapiens)? 5.24
